Reported refractive index is given for each of the following molecules.
Experiment: refractive index (Na D-line) (dimensionless); xn = mol fraction of the nth substance listed
Conditions: 288.15 K; 100.5 kPa; Liquid; Standard Abbe refractometry; x1 = 0.2
Please state the value as a number alone, without comment.

> print(dat)
                                   molecule  measurement.kind  experimental.result
1  CCC(=O)OCc1ccccc1 [benzyl propanoate] + CCO  refractive index              1.42001
2  CCOC(=O)c1ccccc1O [ethyl 2-hydroxybenzoate] + CCO  refractive index              1.42788
3   COC(=O)c1ccccc1 [methyl benzoate] + CCO  refractive index              1.41993
4  CCOC(=O)CC(C)C [ethyl 3-methylbutanoate] + CCO  refractive index              1.37745
5  CC(=O)OCc1ccccc1 [benzyl ethanoate] + CCO  refractive index              1.41836

# input for lookup
# refractive index of CCOC(=O)CC(C)=O [ethyl 3-oxobutanoate] + CCO = 1.3843

---

Assay: xn = mol fraction of the nth substance listed
Conditions: 308.15 K, Wilhelmy plate method, x1 = 0.05
Below, each of the molecules is paired with its reported surface tension liquid-gas value.
Return type: number; implicit unit mN/m.

> print(dat)
                                   molecule  unit.descriptor  experimental.result
1  CCOC(=O)CC(C)=O [ethyl 3-oxobutanoate] + CCO             mN/m                21.91
2  CCOC(=O)c1ccccc1O [ethyl 2-hydroxybenzoate] + CCO             mN/m                22.27
3   COC(=O)c1ccccc1 [methyl benzoate] + CCO             mN/m                 22.1
4  CC(=O)OCc1ccccc1 [benzyl ethanoate] + CCO             mN/m                 22.3
5  CCOC(=O)CC(C)C [ethyl 3-methylbutanoate] + CCO             mN/m                21.57

Entry under test: CCC(=O)OCc1ccccc1 [benzyl propanoate] + CCO . Its surface tension liquid-gas was 22.3

---

Here, each record is paired with measured refractive index data.
Assay: refractive index (Na D-line) (dimensionless); xn = mol fraction of the nth substance listed
Conditions: 308.15 K; 100.5 kPa; Liquid; Standard Abbe refractometry; x1 = 0.55
// return a plain number; no unit text

Known results for molecules:
> print(dat)
                                   molecule  experimental.result
1  CCOC(=O)CC(C)=O [ethyl 3-oxobutanoate] + CCO               1.3972
2  CC(=O)OCc1ccccc1 [benzyl ethanoate] + CCO              1.46119

Entry under test: CCC(=O)OCc1ccccc1 [benzyl propanoate] + CCO . Its refractive index was 1.46031

refractive index recorded for this molecule, CCOC(=O)CC(C)C [ethyl 3-methylbutanoate] + CCO , is 1.38102

Measured refractive index of COC(=O)c1ccccc1 [methyl benzoate] + CCO : 1.46859

response.value for CCOC(=O)c1ccccc1O [ethyl 2-hydroxybenzoate] + CCO (field: refractive index) = 1.4776

---

Recorded surface tension liquid-gas, one value per entry.
Assay: xn = mol fraction of the nth substance listed
Conditions: 308.15 K, Wilhelmy plate method, x1 = 0.25
The response must be a number in mN/m with no trailing unit.

> print(dat)
                                   molecule            measurement.kind  experimental.result
1  CC(=O)OCc1ccccc1 [benzyl ethanoate] + CCO  surface tension liquid-gas                24.83

Lab note: CCOC(=O)c1ccccc1O [ethyl 2-hydroxybenzoate] + CCO gave surface tension liquid-gas of 24.67

// field: surface tension liquid-gas; key: CCC(=O)OCc1ccccc1 [benzyl propanoate] + CCO ; value = 24.82

Lookup result for CCOC(=O)CC(C)C [ethyl 3-methylbutanoate] + CCO ; measured surface tension liquid-gas: 21.81

get_value(item= CCOC(=O)CC(C)=O [ethyl 3-oxobutanoate] + CCO , readout=surface tension liquid-gas) returns 23.9

The molecule listed as COC(=O)c1ccccc1 [methyl benzoate] + CCO shows surface tension liquid-gas equal to 24.94

---

Test: xn = mol fraction of the nth substance listed
Conditions: 298.18 K, Wilhelmy plate method, x1 = 0.95
measurement kind: surface tension liquid-gas (mN/m)
API: value field is a number in mN/m; no unit string.

> print(dat)
                                   molecule  experimental.result
1  CCC(=O)OCc1ccccc1 [benzyl propanoate] + CCO                   34

What the record says about COC(=O)c1ccccc1 [methyl benzoate] + CCO : surface tension liquid-gas is 36.2

GET /value?item= CC(=O)OCc1ccccc1 [benzyl ethanoate] + CCO &field=surface tension liquid-gas returns 35.6

The molecule listed as CCOC(=O)CC(C)C [ethyl 3-methylbutanoate] + CCO shows surface tension liquid-gas equal to 23.45

Looking up CCOC(=O)CC(C)=O [ethyl 3-oxobutanoate] + CCO , I see its surface tension liquid-gas listed as 31.89

surface tension liquid-gas reported for this molecule CCOC(=O)c1ccccc1O [ethyl 2-hydroxybenzoate] + CCO : 35.17

---

In this section, each of the compounds is paired with its reported refractive index.
Experiment: refractive index (Na D-line) (dimensionless); xn = mol fraction of the nth substance listed
Settings: 288.15 K; 100.5 kPa; Liquid; Standard Abbe refractometry; x1 = 0.35
± gives the expanded uncertainty stated by the source.

> print(dat)
                                   compound  measurement.kind  experimental.result
1  CCOC(=O)CC(C)C [ethyl 3-methylbutanoate] + CCO  refractive index     1.3841 ± 0.00032
2  CCOC(=O)CC(C)=O [ethyl 3-oxobutanoate] + CCO  refractive index      1.3951 ± 0.0003
3   COC(=O)c1ccccc1 [methyl benzoate] + CCO  refractive index    1.44896 ± 0.00033

Given item CCOC(=O)c1ccccc1O [ethyl 2-hydroxybenzoate] + CCO , the value recorded as its refractive index is 1.4582 ± 0.00032

The value of refractive index measured for the compound CC(=O)OCc1ccccc1 [benzyl ethanoate] + CCO turned out to be 1.44489 ± 0.00032

The compound listed as CCC(=O)OCc1ccccc1 [benzyl propanoate] + CCO shows refractive index equal to 1.44572 ± 0.00032

---

Experiment: refractive index (Na D-line) (dimensionless); xn = mol fraction of the nth substance listed
Settings: 298.18 K; 100.5 kPa; Liquid; Standard Abbe refractometry; x1 = 0.3
measurement kind: refractive index
Note: the reply should be a number with no unit written.

Recorded results for 5 compounds are shown here.
> print(dat)
                                   compound  experimental.result
1  CCOC(=O)CC(C)=O [ethyl 3-oxobutanoate] + CCO               1.3876
2  CCOC(=O)c1ccccc1O [ethyl 2-hydroxybenzoate] + CCO              1.44465
3  CC(=O)OCc1ccccc1 [benzyl ethanoate] + CCO              1.43255
4  CCOC(=O)CC(C)C [ethyl 3-methylbutanoate] + CCO              1.37769
5   COC(=O)c1ccccc1 [methyl benzoate] + CCO               1.4357

Attention now turns to another entry.
get_value(item= CCC(=O)OCc1ccccc1 [benzyl propanoate] + CCO , readout=refractive index) returns 1.43375

---

Experiment: xn = mol fraction of the nth substance listed
Conditions: 288.15 K, Wilhelmy plate method, x1 = 0.55
Numbers after ± are expanded uncertainties.
Quick list: surface tension liquid-gas per entry.
Please report the result as a number followed by the unit.

Past entries and their recorded results:
> print(dat)
                                   compound  experimental.result
1  CCC(=O)OCc1ccccc1 [benzyl propanoate] + CCO     29.95 ± 0.4 mN/m
2  CCOC(=O)CC(C)=O [ethyl 3-oxobutanoate] + CCO    28.92 ± 0.41 mN/m

Note to self: surface tension liquid-gas recorded for COC(=O)c1ccccc1 [methyl benzoate] + CCO was 30.97 ± 0.41 mN/m

So for CCOC(=O)CC(C)C [ethyl 3-methylbutanoate] + CCO , the logged surface tension liquid-gas turned out to be 23.93 ± 0.41 mN/m

Sample CC(=O)OCc1ccccc1 [benzyl ethanoate] + CCO ; surface tension liquid-gas observed: 30.8 ± 0.4 mN/m

surface tension liquid-gas reading for CCOC(=O)c1ccccc1O [ethyl 2-hydroxybenzoate] + CCO : 29.71 ± 0.4 mN/m

---

Experiment: xn = mol fraction of the nth substance listed
Settings: 288.15 K, Wilhelmy plate method, x1 = 0.15
measurement kind: surface tension liquid-gas (mN/m)
Unit mN/m implied. Number only.

The examples below pair each entry with its known result.
> print(dat)
                                   compound            measurement.kind  experimental.result
1  CCOC(=O)CC(C)C [ethyl 3-methylbutanoate] + CCO  surface tension liquid-gas                23.37
2  CC(=O)OCc1ccccc1 [benzyl ethanoate] + CCO  surface tension liquid-gas                 25.5

Form: compound = CCOC(=O)CC(C)=O [ethyl 3-oxobutanoate] + CCO ; surface tension liquid-gas = 24.65
